Value source: ChEMBL document CHEMBL1131434

- STUDY_SYSTEM: Kappa-type opioid receptor (Cavia porcellus) (UniProt P41144)
- Sequence (P41144 whole entry): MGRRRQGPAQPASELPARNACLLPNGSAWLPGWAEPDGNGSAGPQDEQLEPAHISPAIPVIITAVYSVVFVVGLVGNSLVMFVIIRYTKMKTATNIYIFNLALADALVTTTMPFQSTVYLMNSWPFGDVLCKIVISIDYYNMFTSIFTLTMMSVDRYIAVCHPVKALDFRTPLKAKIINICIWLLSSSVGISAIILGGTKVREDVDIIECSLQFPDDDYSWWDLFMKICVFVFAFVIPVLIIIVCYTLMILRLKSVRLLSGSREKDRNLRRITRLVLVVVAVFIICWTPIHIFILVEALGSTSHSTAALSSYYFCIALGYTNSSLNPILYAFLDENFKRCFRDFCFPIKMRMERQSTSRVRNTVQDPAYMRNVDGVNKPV
- ASSAY_NOTES: Inhibition against Opioid receptor kappa 1 using selective ligand [3H]U-69593
- Set-up: concentration or dose not given beside the values
- PROTOCOL_CONDITIONS: concentration not given here
Recorded inhibition determines the label; the label ranges are bottom: < 10%; middle: ≥ 10% and < 20%; top: ≥ 20%

Q. The entry to classify is CC(C)C(CN1CCC(C)(c2cccc(O)c2)C(C)C1)NC(=O)/C=C/c1ccc(O)cc1 (configuration not stated) ; which class holds it?
A. middle

Q. The entry to classify is COc1ccc(CCC(=O)NC(CN2CCC(C)(c3cccc(O)c3)C(C)C2)C(C)C)cc1 (configuration not stated) ; which class holds it?
A. middle

Q. The entry to classify is `C[S+](C)[O-]` ; which class holds it?
A. bottom

Q. The entry to classify is CC(CN1CCC(C)(c2cccc(O)c2)C(C)C1)N(C)C(=O)CCc1ccc(O)cc1 (configuration not stated) ; which class holds it?
A. bottom

Q. The entry to classify is `CC(C)[C@@H](CN1CC[C@@](C)(c2cccc(O)c2)[C@@H](C)C1)NC(=O)CCc1ccccc1` ; which class holds it?
A. top

Q. The entry to classify is CC1CN(CC(c2ccccc2)N(C)C(=O)CCc2ccc(O)cc2)CCC1(C)c1cccc(O)c1 (configuration not stated) ; which class holds it?
A. bottom

Q. The entry to classify is CC1CN(CCN(C)C(=O)CCc2ccc(O)cc2)CCC1(C)c1cccc(O)c1 (configuration not stated) ; which class holds it?
A. bottom

Q. The entry to classify is CC1CN(CCNC(=O)CCc2ccc(O)cc2)CCC1(C)c1cccc(O)c1 (configuration not stated) ; which class holds it?
A. middle

Q. The entry to classify is COc1cc(CCC(=O)NC(CN2CCC(C)(c3cccc(O)c3)C(C)C2)C(C)C)ccc1O (configuration not stated) ; which class holds it?
A. top

Q. The entry to classify is CC(C)C(CN1CCC(C)(c2cccc(O)c2)C(C)C1)NC(=O)CCc1ccc(O)c(O)c1 (configuration not stated) ; which class holds it?
A. top

Q. The entry to classify is CC(C)C(CN1CCC(C)(c2cccc(O)c2)C(C)C1)NC(=O)CCc1ccc(F)cc1 (configuration not stated) ; which class holds it?
A. top

Q. The entry to classify is `CC(C)[C@@H](CN1CC[C@@](C)(c2cccc(O)c2)[C@@H](C)C1)NC(=O)CCc1ccc(O)cc1` ; which class holds it?
A. top

Q. The entry to classify is `CC(C)[C@H](CN1CC[C@@](C)(c2cccc(O)c2)[C@@H](C)C1)NC(=O)CCc1ccc(O)cc1` ; which class holds it?
A. middle

Q. The entry to classify is CC(C)C(CN1CCC(C)(c2cccc(O)c2)C(C)C1)NC(=O)Cc1ccc(O)cc1 (configuration not stated) ; which class holds it?
A. bottom

Q. The entry to classify is CC(C)C(CN1CCC(C)(c2cccc(O)c2)C(C)C1)NC(=O)CCc1ccccc1O (configuration not stated) ; which class holds it?
A. top

----------
- STUDY_SYSTEM: Mu-type opioid receptor (Cavia porcellus)
- Sequence (P97266 whole entry): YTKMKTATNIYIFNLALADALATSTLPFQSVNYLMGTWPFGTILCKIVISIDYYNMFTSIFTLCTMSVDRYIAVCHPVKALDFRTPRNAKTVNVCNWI
- ASSAY_NOTES: Binding affinity determined on Opioid receptor mu 1 in Guinea pig brain membranes using radioligand [3H]DAMGO
- Format: cell membranes, Membrane
Please respond with reported Ki for every item in the list.
Output spec: scalar in nM, unitless text.

Q. System Mu-type opioid receptor (Cavia porcellus). Read-out Ki. Item `CC(C)[C@@H](CN1CC[C@@](C)(c2cccc(O)c2)[C@@H](C)C1)NC(=O)CCc1ccc(O)cc1` . Report value.
A. 393

Q. System Mu-type opioid receptor (Cavia porcellus). Read-out Ki. Item CC(C)C[C@@H](CN1CCC(C)(c2cccc(O)c2)C(C)C1)NC(=O)CCc1ccc(O)cc1 (stereo partly drawn) . Report value.
A. 398

Q. System Mu-type opioid receptor (Cavia porcellus). Read-out Ki. Item `C[C@@H]1CN(C/C=C/c2ccccc2)CC[C@]1(C)c1cccc(O)c1` . Report value.
A. 0.74
